Below is a list of entries, each paired with its recorded pIC50 value.
Test system: AR mRNA
Experiment: Dose-dependent antisense inhibition of human AR in HuVEC cells (electroporation, qRT-PCR RTS3559, IC50)
Assay type: cell-based
Settings: Table 32; HuVEC, electroporation, approximately 16 hours
Oligonucleotides are written 5' to 3', each unit as a sugar letter and its base; * is a phosphorothioate linkage, no mark a phosphodiester; rarer units and linkages stand in square brackets, end groups in braces. Plain capitals give the bases only. k = constrained ethyl (cEt); [5mC] = 5-methylcytosine; d = 2'-deoxy (DNA)
Please report pIC50 as the negative decimal logarithm of the molar concentration, giving only the number.

Before answering, review these 4 worked examples.
1) 583759 (antisense kG*k[5mC]*kT*dG*dT*dT*d[5mC]*d[5mC]*dT*d[5mC]*dA*dT*d[5mC]*k[5mC]*kA*kG) [compound 583759]; 6.20
2) 583835 (kG*kA*kA*dG*d[5mC]*dT*dG*dT*dT*d[5mC]*d[5mC]*d[5mC]*d[5mC]*kT*kG*kG; antisense) [compound 583835]; 6.72
3) 583880 (kT*kT*kT*dG*dG*dT*dG*dT*dA*dA*d[5mC]*d[5mC]*dT*k[5mC]*k[5mC]*k[5mC]; antisense) [compound 583880]; 6.66
4) 583856 (kA*kA*k[5mC]*d[5mC]*dT*dT*dT*dG*d[5mC]*dA*dT*dT*d[5mC]*kG*kG*k[5mC]; antisense) [compound 583856]; 6.85

Moving on to the next substance.
Which measured pIC50 value corresponds to 583855 (k[5mC]*k[5mC]*kT*dT*dT*dG*d[5mC]*dA*dT*dT*d[5mC]*dG*dG*k[5mC]*k[5mC]*kA; antisense) [compound 583855] ?
6.74
